- assay: TIMS collisional cross section (CCS, N2) of the lipid ion; higher = larger ion cross section
- condition details: sample type: Liver; ionization mode: positive; one isomer drawn
Where TIMS collisional cross section equals or exceeds 300 Å², the correct label is yes (1); where it does not, the label is no (0).

Identify whether the reported TIMS collisional cross section of the following compound is 300 Å² or greater: CCCCC/C=C\C/C=C\CCCCCCCC(=O)OC[C@@H](COC(=O)CCCCCCC/C=C\CCCCCCCC)OC(=O)CCCCCCC/C=C\C/C=C\CCCCC [TG 18:1_18:2_18:2] (ion (formula + adduct): [C57H100O6+NH4] 1+)
yes (1)

Identify whether the reported TIMS collisional cross section of the following compound is 300 Å² or greater: CC/C=C\C/C=C\C/C=C\CCCCCCCC(=O)O[C@H](COC(=O)CCCCCCCCCCCCCCC)COP(=O)(O)OCCN [PE 16:0_18:3@] (ion (formula + adduct): [C39H72NO8P+H] 1+)
no (0)

Identify whether the reported TIMS collisional cross section of the following compound is 300 Å² or greater: CC/C=C\C/C=C\C/C=C\C/C=C\C/C=C\C/C=C\CCC(=O)O[C@H](COC(=O)CCC/C=C\C/C=C\C/C=C\C/C=C\CCCCC)COP(=O)(O)OCCN [PE 20:4@_22:6] (ion (formula + adduct): [C47H74NO8P+H] 1+)
no (0)

Identify whether the reported TIMS collisional cross section of the following compound is 300 Å² or greater: CCCCC/C=C\C/C=C\CCCCCCCC(=O)O[C@H](COC(=O)CCCCCCC/C=C\CCCCCCCC)COC(=O)CCCCCCCCCCCCCCCCCC [TG 18:1_18:2_19:0] (ion (formula + adduct): [C58H106O6+NH4] 1+)
yes (1)

Identify whether the reported TIMS collisional cross section of the following compound is 300 Å² or greater: CCCCC/C=C\C/C=C\C/C=C\C/C=C\CCCC(=O)O[C@H](COC(=O)CCCCCCC/C=C\C/C=C\CCCCC)COP(=O)([O-])OCC[N+](C)(C)C [PC 18:2_20:4] (ion (formula + adduct): [C46H80NO8P+H] 1+)
no (0)

More entries:
Identify whether the reported TIMS collisional cross section of the following compound is 300 Å² or greater: CCCCCCCCCCCCCCCCCC(=O)OC[C@H](COP(=O)(O)OCCN)OC(=O)CCCCCCCCCCCCCCCCC [PE 18:0_18:0] (ion (formula + adduct): [C41H82NO8P+Na] 1+)
no (0)

Identify whether the reported TIMS collisional cross section of the following compound is 300 Å² or greater: CCCCC/C=C\C/C=C\CCCCCCCC(=O)OC[C@@H](COC(=O)CCCCCCCCCCCCCC)OC(=O)CCCCCCC/C=C\CCCCCC [TG 15:0_16:1_18:2] (ion (formula + adduct): [C52H94O6+NH4] 1+)
yes (1)

Identify whether the reported TIMS collisional cross section of the following compound is 300 Å² or greater: CC/C=C\C/C=C\C/C=C\C/C=C\C/C=C\C/C=C\CCC(=O)OC[C@@H](COC(=O)CCCCCCCCCCCCCCC)OC(=O)CCCCCCCCCCCCCCCCCCC [TG 16:0_20:0_22:6] (ion (formula + adduct): [C61H106O6+NH4] 1+)
yes (1)

Identify whether the reported TIMS collisional cross section of the following compound is 300 Å² or greater: CC/C=C\C/C=C\C/C=C\C/C=C\C/C=C\CCCC(=O)O[C@H](COC(=O)CCCCCCCCC/C=C\CCCCCC)COP(=O)([O-])OCC[N+](C)(C)C [PC 18:1@_20:5] (ion (formula + adduct): [C46H80NO8P+H] 1+)
no (0)

Identify whether the reported TIMS collisional cross section of the following compound is 300 Å² or greater: CCCCC/C=C\C/C=C\C/C=C\C/C=C\CCCC(=O)O[C@H](COC(=O)CCCCCCCCCCCCCCCC)COP(=O)(O)OCCN [PE 17:0_20:4@] (ion (formula + adduct): [C42H76NO8P+H] 1+)
no (0)

Identify whether the reported TIMS collisional cross section of the following compound is 300 Å² or greater: CCCCCCCCCCCCCCCCCC(=O)OC[C@@H](O)COP(=O)(O)OC[C@H](N)C(=O)O [LPS 18:0] (ion (formula + adduct): [C24H48NO9P+H] 1+)
no (0)

Identify whether the reported TIMS collisional cross section of the following compound is 300 Å² or greater: CC/C=C\C/C=C\C/C=C\C/C=C\C/C=C\C/C=C\CCC(=O)OC[C@H](COP(=O)(O)OCCN)OC(=O)CCCCCCC/C=C\CCCCCCCC [PE 22:6_18:1] (ion (formula + adduct): [C45H76NO8P+H] 1+)
no (0)

Identify whether the reported TIMS collisional cross section of the following compound is 300 Å² or greater: CC/C=C\C/C=C\C/C=C\C/C=C\C/C=C\CCCCCC(=O)OC[C@@H](COC(=O)CCCCCCC/C=C\C/C=C\CCCCC)OC(=O)CCCCCCC/C=C\C/C=C\CCCCC [TG 18:2_18:2_22:5] (ion (formula + adduct): [C61H100O6+NH4] 1+)
yes (1)

Identify whether the reported TIMS collisional cross section of the following compound is 300 Å² or greater: C1C[C@H](O)C(CO)[C@]2([H])CCC3=C([C@]21C)CC[C@]1(C)[C@@]([H])([C@H](C)CC/C=C(/C)\C)CC[C@]13[H] (some centres not stated) [zymosterol intermediate 1a] (ion (formula + adduct): [C28H46O2+H] 1+)
no (0)

* * *

- assay: TIMS collisional cross section (CCS, N2) of the lipid ion; higher = larger ion cross section
- condition details: sample type: Liver; ionization mode: positive; one isomer drawn
endpoint name: TIMS collisional cross section (Å²)
Answers are plain numbers, in Å².

Recorded TIMS collisional cross section of CCCCC/C=C\C/C=C\CCCCCCCC(=O)OC[C@H](COP(=O)(O)OCCN)OC(=O)CCCCCCC/C=C\C/C=C\CCCCC [PE 18:2_18:2] (ion (formula + adduct): [C41H74NO8P+H] 1+) , please.
273.1

Return reported TIMS collisional cross section values for all items listed beneath this line.
1. CCCCCCCC/C=C\CCCCCCCC(=O)O[C@H](COC(=O)CCCCCCCCCCCCCCCCC)COP(=O)(O)OCCN [PE 18:0@_18:1] (ion (formula + adduct): [C41H80NO8P+H] 1+)
2. CCCCCCCC/C=C\CCCCCCCCCC(=O)O[C@@H](CO)COC(=O)CCCCCCC/C=C\CCCCCCCC [DG 18:1_20:1_0:0] (ion (formula + adduct): [C41H76O5+NH4] 1+)

1. 282.2
2. 271.8

* * *

- assay: TIMS collisional cross section (CCS, N2) of the lipid ion; higher = larger ion cross section
- condition details: sample type: HeLa; ionization mode: positive; one isomer drawn
Where TIMS collisional cross section equals or exceeds 300 Å², the correct label is True; where it does not, the label is False.

A selection of reference data follows.
Identify whether the reported TIMS collisional cross section of the following compound is 300 Å² or greater: CC/C=C\C/C=C\C/C=C\C/C=C\C/C=C\C/C=C\CCC(=O)OC[C@@H](COC(=O)CCCCCCC/C=C\CCCCCC)OC(=O)CCCCCCCCCCCCCCCCC [TG 16:1_18:0_22:6] (ion (formula + adduct): [C59H100O6+NH4] 1+)
True

Identify whether the reported TIMS collisional cross section of the following compound is 300 Å² or greater: CC/C=C\C/C=C\C/C=C\C/C=C\C/C=C\C/C=C\CCC(=O)OC[C@@H](COC(=O)CCCCCCCCCCCCCCC)OC(=O)CCCCC/C=C\C/C=C\C/C=C\C/C=C\C/C=C\CC [TG 16:0_22:5_22:6] (ion (formula + adduct): [C63H100O6+NH4] 1+)
True

Identify whether the reported TIMS collisional cross section of the following compound is 300 Å² or greater: CC/C=C\C/C=C\C/C=C\C/C=C\C/C=C\CCCC(=O)O[C@H](COC(=O)CCCCCCC/C=C\CCCCCCC)COP(=O)([O-])OCC[N+](C)(C)C [PC 17:1@_20:5] (ion (formula + adduct): [C45H78NO8P+H] 1+)
False

Identify whether the reported TIMS collisional cross section of the following compound is 300 Å² or greater: CCCCC/C=C/C/C=C/C/C=C/C/C=C/CCCC(=O)O[C@H](COCCCCCCCCCCCCCCCC)COP(=O)([O-])OCC[N+](C)(C)C [PC O- 16:0@_20:4] (ion (formula + adduct): [C44H82NO7P+H] 1+)
False

Identify whether the reported TIMS collisional cross section of the following compound is 300 Å² or greater: CCCCC/C=C\C/C=C\C/C=C\C/C=C\CCCCCC(=O)OC[C@@H](O)COP(=O)(O)OCCN [LPE 22:4] (ion (formula + adduct): [C27H48NO7P+H] 1+)
False

Identify whether the reported TIMS collisional cross section of the following compound is 300 Å² or greater: CCCCCC/C=C\CCCCCCCC(=O)O[C@H](COC(=O)CCCCCCCCCCCCCCC)COP(=O)([O-])OCC[N+](C)(C)C [PC 16:0@_16:1] (ion (formula + adduct): [C40H78NO8P+H] 1+)
False

More entries:
Identify whether the reported TIMS collisional cross section of the following compound is 300 Å² or greater: CCCCCC/C=C\CCCCCCCC(=O)OC[C@H](COP(=O)(O)OCCN)OC(=O)CCCCCCCCCCCCC [PE 16:1_14:0] (ion (formula + adduct): [C35H68NO8P+H] 1+)
False

Identify whether the reported TIMS collisional cross section of the following compound is 300 Å² or greater: CC/C=C\C/C=C\C/C=C\C/C=C\C/C=C\C/C=C\CCC(=O)OC[C@H](COP(=O)(O)OCCN)OC(=O)CC/C=C\C/C=C\C/C=C\C/C=C\C/C=C\C/C=C\CC [PE 22:6_22:6] (ion (formula + adduct): [C49H74NO8P+H] 1+)
False

Identify whether the reported TIMS collisional cross section of the following compound is 300 Å² or greater: CC/C=C\C/C=C\C/C=C\C/C=C\C/C=C\C/C=C\CCC(=O)OC[C@@H](COC(=O)CCCCCCCCCCCCCCC)OC(=O)CCCCCCCCCCCCCCC [TG 16:0_16:0_22:6] (ion (formula + adduct): [C57H98O6+NH4] 1+)
True

Identify whether the reported TIMS collisional cross section of the following compound is 300 Å² or greater: CCCCCCCCCCCCC/C=C/[C@@H](O)[C@H](COP(=O)([O-])OCC[N+](C)(C)C)NC(=O)CCCCCCCCCCCCC [SM d18:1_14:0@] (ion (formula + adduct): [C37H75N2O6P+H] 1+)
False

Identify whether the reported TIMS collisional cross section of the following compound is 300 Å² or greater: CCCCCC/C=C\CCCCCCCC(=O)OC[C@H](COC(=O)CCCCCCCCCCCCCCCCC)OC(=O)CCCCCCC/C=C\CCCCCCC [TG 16:1_17:1_18:0] (ion (formula + adduct): [C54H100O6+NH4] 1+)
True

Identify whether the reported TIMS collisional cross section of the following compound is 300 Å² or greater: CC/C=C\C/C=C\C/C=C\C/C=C\C/C=C\CCCCCC(=O)OC[C@@H](COC(=O)CCCCCCCCCCCCCCC)OC(=O)CCCCCCC/C=C\CCCCCCCC [TG 16:0_18:1_22:5] (ion (formula + adduct): [C59H102O6+NH4] 1+)
True

Identify whether the reported TIMS collisional cross section of the following compound is 300 Å² or greater: CCCCCCCCCCCCC/C=C/[C@@H](O)[C@H](CO)NC(=O)CCCCCCCCCCCCCCCCCCCCC [Cer d18:1_22:0@] (ion (formula + adduct): [C40H79NO3+H] 1+)
False

Identify whether the reported TIMS collisional cross section of the following compound is 300 Å² or greater: CC/C=C\C/C=C\C/C=C\C/C=C\C/C=C\CCCCCC(=O)OC[C@@H](COC(=O)CCCCCCCCCCCCCCC)OC(=O)CCCCCCC/C=C\CCCCCCCCC [TG 16:0_19:1_22:5] (ion (formula + adduct): [C60H104O6+NH4] 1+)
True
